Experiment: refractive index (Na D-line) (dimensionless)
Conditions: 298.15 K; 100 kPa; Liquid; Standard Abbe refractometry
assay-endpoint: refractive index
# output: bare number, no unit

Qu. Tell me measured refractive index for `OCCCCCO` please.
Ans. 1.4478

Qu. Check the records and state refractive index for `OCCCO`
Ans. 1.438

Qu. Indicate its recorded refractive index; the compound in question is `O`
Ans. 1.3325

Qu. Determine from records and report refractive index for `OCCO`
Ans. 1.4294

----------
Details: 293.15 K; 100 kPa; Liquid; Vibrating tube method
assay-endpoint: mass density (kg/m3)
The reply should be a number in kg/m3, with the unit left off.

Recorded mass density, per entry:
OCCO [1,2-ethanediol] :: 1113.3
OCCCO [propan-1,3-diol] :: 1053.2
O [water] :: 998.3

Qu. # return recorded mass density for input OCCCCCO [1,5-pentanediol]
Ans. 989.2

----------
Assay: refractive index (Na D-line) (dimensionless)
Settings: 318.15 K; 100 kPa; Liquid; Standard Abbe refractometry
assay-endpoint: refractive index
Simply state the number, no unit and no words.

The examples below pair each entry with its known result.
OCCCCCO :: 1.443
O :: 1.3299
OCCO :: 1.4244

# ---- query compound ----
Qu. // fetch refractive index given entry `OCCCO`
Ans. 1.4327

----------
Assay: refractive index (Na D-line) (dimensionless)
Conditions: 308.15 K; 100 kPa; Liquid; Standard Abbe refractometry
assay-endpoint: refractive index
Give the figure only, with no unit attached.

OCCCO :: 1.4353

Qu. Please look at this compound and report its refractive index: `O`
Ans. 1.3312

Qu. Supply reported refractive index belonging to this compound: `OCCO`
Ans. 1.4269

Qu. Give the value of refractive index reported for the following: `OCCCCCO`
Ans. 1.4454

----------
Details: 298.15 K; 100 kPa; Liquid; Falling or rolling sphere viscometry
Known viscosity of a selection of compounds
// note: answer is a bare numeric in mPa·s

Completed entries (count: 3):
OCCCO [propan-1,3-diol] :: 40.8
OCCCCCO [1,5-pentanediol] :: 86.79
OCCO [1,2-ethanediol] :: 17.24

Qu. Quick one: give measured viscosity for O [water]
Ans. 0.843

----------
Recorded refractive index values for a group of molecules are listed next.
Assay: refractive index (Na D-line) (dimensionless)
Details: 288.15 K; 100 kPa; Liquid; Standard Abbe refractometry
Give the figure by itself; no unit, no explanation.

The cases that follow already have their refractive index on record.
OCCCCCO :: 1.4503
OCCCO :: 1.4407
OCCO :: 1.432

Qu. Identify the reported refractive index for the following entry. `O`
Ans. 1.3338

----------
Listing: viscosity of selected molecules
Details: 303.15 K; 100 kPa; Liquid; Falling or rolling sphere viscometry
Numbers after ± are expanded uncertainties.

Observe how each entry below is paired with its result.
OCCO [1,2-ethanediol] :: 14.23 ± 2.3 mPa·s
OCCCO [propan-1,3-diol] :: 32.74 ± 5.3 mPa·s
OCCCCCO [1,5-pentanediol] :: 68.3 ± 11 mPa·s

Pending molecule:
Qu. Give reported viscosity value for O [water]
Ans. 0.755 ± 0.12 mPa·s

----------
Experiment: refractive index (Na D-line) (dimensionless)
Details: 293.15 K; 100 kPa; Liquid; Standard Abbe refractometry
assay-endpoint: refractive index
No unit in the answer, only the number.

OCCCCCO :: 1.449

Qu. Name the recorded refractive index of the item `OCCCO` in your answer.
Ans. 1.4393

Qu. Entry `O` needs its refractive index filled in; supply it.
Ans. 1.3331

Qu. Give recorded refractive index. `OCCO`
Ans. 1.4306

Source of measurements: the NIST ThermoML archive (doi:10.1021/acs.jced.6b00526)
